Source of measurements: patent US10597674B2

Test system: HPPD polypeptides (wild-type SEQ ID NO:1 and mutants)
Details: in the presence of diketonitrile (DKN), 60 μM inhibitor, high substrate concentration; total change in signal normalized to no inhibitor
readout-name: Residual turnover

Reference set, count: 5
31 (protein, mutant HPPD polypeptide) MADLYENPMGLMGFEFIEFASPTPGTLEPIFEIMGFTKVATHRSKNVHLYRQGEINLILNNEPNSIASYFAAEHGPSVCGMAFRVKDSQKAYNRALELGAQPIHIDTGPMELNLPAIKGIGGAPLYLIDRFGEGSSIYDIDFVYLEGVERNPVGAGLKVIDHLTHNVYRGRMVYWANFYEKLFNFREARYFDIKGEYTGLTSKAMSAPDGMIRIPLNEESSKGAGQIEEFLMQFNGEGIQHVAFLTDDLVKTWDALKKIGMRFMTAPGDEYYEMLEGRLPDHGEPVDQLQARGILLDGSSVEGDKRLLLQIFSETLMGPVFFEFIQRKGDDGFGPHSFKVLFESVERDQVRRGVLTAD
n.i.
30 (protein, mutant HPPD polypeptide) MADLYENPMGLMGFEFIEFASPTPGTLEPIFEIMGFTKVATHRSKNVHLYRQGEINLILNNEPNSIASYFAAEHGPSVCGMAFRVKDSQKAYNRALELGAQPIHIDTGPMELNLPAIKGIGGAPLYLIDRFGEGSSIYDIDFVYLEGVERNPVGAGLKVIDHLTHNVYRGRMVYWANFYEKLFNFREARYFDIKGEYTGLTSKAMSAPDGMIRIPLNEESSKGAGQIEEFLMQFNGEGIQHVAFLTDDLVKTWDALKKIGMRFMTAPSDSYYEMLEGRLPDHGEPVDQLQARGILLDGSSVEGDKRLLLQIFSETLMGPVFFEFIQRKGDDGFGPHSFKVLFESKERDQVRRGVLTAD
n.i.
8 (protein, mutant HPPD polypeptide) MADLYENPMGLMGFEFIEFASPTPGTLEPIFEIMGFTKVATHRSKNVHLYRQGEINLILNNEPNSIASYFAAEHGPSVCGMAFRVKDSQKAYNRALELGAQPIHIDTGPMELNLPAIKGIGGAPLYLIDRFGEGSSIYDIDFVYLEGVERNPVGAGLKVIDHLTHNVYRGRMVYWANFYEKLFNFREARYFDIKGEYTGLTSKAMSAPDGMIRIPLNEESSKGAGQIEEFLMQFNGEGIQHVAFLTDDLVKTWDALKKIGMRFMTAPPDTYYEMLEGRLPDHGEPVDQLQARGILLDGSSVEGDKRLLLQIFSETLMGPVFFEFIQRKGDDGFGPDSFKVLFESIERDQVRRGVLTAD
95%
17 (protein, mutant HPPD polypeptide) MADLYENPMGLMGFEFIEFASPTPGTLEPIFEIMGFTKVATHRSKNVHLYRQGEINLILNNEPNSIASYFAAEHGPSVCGMAFRVKDSQKAYNRALELGAQPIHIDTGPMELNLPAIKGIGGAPLYLIDRFGEGSSIYDIDFVYLEGVERNPVGAGLKVIDHLTHNVYRGRMVYWANFYEKLFNFREARYFDIKGEYTGLTSKAMSAPDGMIRIPLNEESSKGAGQIEEFLMQFNGEGIQHVAFLTDDLVKTWDALKKIGMRFMTAPGDEYYEMLEGRLPDHGEPVDQLQARGILLDGSSVEGDKRLLLQIFSETLMGPVFFEFIQRKGDDGFGPDSFKVLFESVERDQVRRGVLTAD
95%
21 (protein, mutant HPPD polypeptide) MADLYENPMGLMGFEFIEFASPTPGTLEPIFEIMGFTKVATHRSKNVHLYRQGEINLILNNEPNSIASYFAAEHGPSVCGMAFRVKDSQKAYNRALELGAQPIHIDTGPMELNLPAIKGIGGAPLYLIDRFGEGSSIYDIDFVYLEGVERNPVGAGLKVIDHLTHNVYRGRMVYWANFYEKLFNFREARYFDIKGEYTGLTSKAMSAPDGMIRIPLNEESSKGAGQIEEFLMQFNGEGIQHVAFLTDDLVKTWDALKKIGMRFMTAPPDTYYEMLEGRLPDHGEPVDQLQARGILLDGSSVEGDKRLLLQIFSETLMGPVFFEFIQRKGDDGFGPHSFKALFESIERDQVRRGVLTAD
n.i

Q: Need Residual turnover of 22 (protein, mutant HPPD polypeptide) MADLYENPMGLMGFEFIEFASPTPGTLEPIFEIMGFTKVATHRSKNVHLYRQGEINLILNNEPNSIASYFAAEHGPSVCGMAFRVKDSQKAYNRALELGAQPIHIDTGPMELNLPAIKGIGGAPLYLIDRFGEGSSIYDIDFVYLEGVERNPVGAGLKVIDHLTHNVYRGRMVYWANFYEKLFNFREARYFDIKGEYTGLTSKAMSAPDGMIRIPLNEESSKGAGQIEEFLMQFNGEGIQHVAFLTDDLVKTWDALKKIGMRFMTAPPDTYYEMLEGRLPDHGEPVDQLQARGILLDGSSVEGDKRLLLQIFSETLMGPVFFEFIQRKGDDGFGPHSFKVLFESIERDQVRRGVLTAD , thanks.
Result: n.i.

Q: Quick one: Residual turnover of 18 (protein, mutant HPPD polypeptide) MADLYENPMGLMGFEFIEFASPTPGTLEPIFEIMGFTKVATHRSKNVHLYRQGEINLILNNEPNSIASYFAAEHGPSVCGMAFRVKDSQKAYNRALELGAQPIHIDTGPMELNLPAIKGIGGAPLYLIDRFGEGSSIYDIDFVYLEGVERNPVGAGLKVIDHLTHNVYRGRMVYWANFYEKLFNFREARYFDIKGEYTGLTSKAMSAPDGMIRIPLNEESSKGAGQIEEFLMQFNGEGIQHVAFLTDDLVKTWDALKKIGMRFRTAPPDTYYEMLEGRLPDHGEPVDQLQARGILLDGSSVEGDKRLLLQIFSETLMGPVFFEFIQRKGHDGFGPDSFKVLFESIERDQVRRGVLTAD ?
Result: n.i.
